All values here come from paper PMC9000871.

Counter-ions that a name gives are not always drawn.
Endpoint name: melting point

- Compound: "CCN(CC)c1ccc2c(-c3ccccc3C(=O)N3CCN(C(=O)[C@]45CC[C@@H](C)[C@H](C)C4C4=CCC6[C@@]7(C)CC[C@H](OC(C)=O)C(C)(C)C7CC[C@@]6(C)[C@]4(C)CC5)CC3)c3ccc(=[N+](CC)CC)cc-3oc2c1 (stereo partly drawn) (as salt: chloride)"
  Endpoint name: "melting point"
  Obs value: "245 to 251 °C"
- Compound: "CCN(CC)c1ccc2c(-c3ccccc3C(=O)N3CCN(C(=O)[C@]45CCC(C)(C)CC4C4=CCC6[C@@]7(C)CC[C@H](OC(C)=O)C(C)(C)C7CC[C@@]6(C)[C@]4(C)CC5)CC3)c3ccc(=[N+](CC)CC)cc-3oc2c1 (stereo partly drawn) (as salt: chloride)"
  Endpoint name: "melting point"
  Obs value: "246 to 252 °C"

(Q) Which melting point value is on record for CC(=O)O[C@H]1CC[C@@]2(C)C(CC[C@]3(C)C2CCC2C4[C@H](C(C)=O)CC[C@]4(C(=O)N4CCNCC4)CC[C@]23C)C1(C)C (stereo partly drawn) ?
(A) 127 to 130 °C
